Attribution: PubChem BioAssay (NCI)

- Measurement protocol: NCI Yeast Anticancer Drug Screen. Data for the rad50EPP+ strain (AID 151);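 also: 0% = growth of vehicle-treated control cultures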
- Condition summary: S. cerevisiae rad50 mutant strain, at 33.0 µM
About 79,000 compounds went through this panel and 15% of them were active in at least one assay; those are over-represented in the sample as a whole. Active and inactive are the calls of the source. Rule as the data show it: active = growth inhibition above about 70%; inactive = the rest.
Entry note: the call must match one of true (1) (active), false (0) (inactive)

# Compound, Label value
data = [
    ("CCCCCCNCCCNc1c2ccccc2nc2cccc([N+](=O)[O-])c12", "false (0)"),
    ("COc1cc(C2C3=C(COC3=O)Oc3cc4c(cc32)OCO4)cc(OC)c1O (configuration not stated)", "false (0)"),
    ("Cc1cc2nc3ccccc3n2c2ccccc12", "false (0)"),
    ("CCS(=O)(=O)Nc1ccc(Nc2c3ccccc3nc3ccccc23)c(OC)c1", "true (1)"),
    ("CC(=O)/C=C/c1cc([N+](=O)[O-])ccc1O", "true (1)"),
]

Pending compound:
Please state the recorded outcome for this compound: "O=S(=O)(NNc1ccccc1)c1ccccc1"
true (1)

* * *

- Measurement protocol: NCI Yeast Anticancer Drug Screen. Data for the rad14 strain (AID 159);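 also: 0% = growth of vehicle-treated control cultures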
- Condition summary: S. cerevisiae rad14 strain growth inhibition; at 1.2 µM; hits give high values
About 79,000 compounds went through this panel and 15% of them were active in at least one assay; those are over-represented in the sample as a whole. Activity calls are given as the source filed them. Rule as the data show it: active = growth inhibition above about 70%; inactive = the rest.
Endpoint name: growth inhibition

# Compound, Endpoint name, Result
records = [
    ("O=C(/N=N/C(=O)Oc1ccccc1)Oc1ccccc1", "growth inhibition", "-26% (inactive)"),
    ("O=C(Cc1ccccc1)NN1C(=O)C(Cl)C1c1cc(Br)cc(Br)c1O (stereo not given)", "growth inhibition", "-3% (inactive)"),
]

Entry "c1ccc2c(c1)ccn2CCc1c[nH]c2ccccc12" , growth inhibition reported as -16% (inactive)

Entry "CC1=NN(C(=O)c2ccccc2O)C(=O)/C1=C/c1ccco1" — recorded growth inhibition = -1% (inactive)

Lab note: "CCOC(=O)/C(=C/c1cccc(Cl)c1)N(CC)CC" gave growth inhibition of -12% (inactive)

The compound identified as "S=C1C(=Nc2ccccc2)N(c2ccccc2)/C(=N\c2ccccn2)N1c1ccccc1" registered its growth inhibition at -4% (inactive)

Entry "c1ccc2nc3c(nc2c1)sc1ccccc13" , growth inhibition reported as 4% (inactive)

* * *

- Measurement protocol: NCI Yeast Anticancer Drug Screen. Data for the mec2-1 strain (AID 157)
- Condition summary: S. cerevisiae mec2-1 strain, at 1.2 µM, hits give high values
The panel holds about 79,000 compounds, 15% with a hit somewhere; the sample as a whole holds those more often.
# key: entry, value: growth inhibition
Give the value in % but do not write % after it.

# count of solved cases: 2
# Molecule, Endpoint name, Reading unit, Recorded number
data = [
    ("CN(C)CC(CN(C)C)C(=O)/C=C/c1ccc(Cl)cc1Cl", "growth inhibition", "%", -3),
    ("O=[N+]([O-])/C=C/c1cc2ccc3ccccc3c2[nH]1", "growth inhibition", "%", 20),
]

Briefly, growth inhibition measured for Cc1cccc(C)c1NC(=O)CCC(=O)C(C)C(=O)c1ccc(O)cc1 (configuration not stated) : -6

* * *

- Measurement protocol: NCI Yeast Anticancer Drug Screen. Data for the rad50EPP+ strain (AID 151);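 also: 0% = growth of vehicle-treated control cultures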
- Condition summary: S. cerevisiae rad50 mutant strain, at 1.2 µM, hits give high values
The panel holds about 79,000 compounds, 15% with a hit somewhere; the sample as a whole holds those more often.
Endpoint name: growth inhibition (%)
The figure you give is taken to be in %; do not add the unit.

Form field growth inhibition, entry COC(=O)C1CCCCC1C(=O)Nc1ccccc1 (stereo not given) : -3

growth inhibition in this record for "COC(=O)c1cnc(Cl)c([N+](=O)[O-])c1" : 14

The compound listed as "Cc1ccc(S(=O)(=O)N/N=C/C(Br)=C(/Br)C(=O)O)cc1" has a reported growth inhibition of 28

Entry "O=C(CCCN1CCC(Nc2ccc(F)cc2)(c2nnnn2C2CCCCC2)CC1)c1ccc(F)cc1" ; growth inhibition = 0

Note to self: growth inhibition recorded for CCCC/C=C1\CCC(CN2CCCC2)C1=O (stereo not given) was -4

Looking up O=S(=O)(c1cccc(C(F)(F)F)c1)N1c2ccccc2-n2cccc2C1c1cccnc1 (stereo not given) , I found its growth inhibition recorded as -73

Lookup result for "CCCCCCCCCCCCOCCOCCOCC(N)=O" ; measured growth inhibition: -14

* * *

- Measurement protocol: NCI Yeast Anticancer Drug Screen. Data for the mec2-1 strain (AID 157)
- Condition summary: S. cerevisiae mec2-1 strain, at 33.0 µM, hits give high values
Compounds without any hit were thinned out: in the full panel of roughly 79,000, 15% have a hit. The source made the active and inactive calls. No stated cut-off is given here; in the data, active means growth inhibition above about 70%; inactive means the rest.
Endpoint name: growth inhibition

Given item "Cc1nc2sc3c(c2c(=O)o1)CCCC3" , the value recorded as its growth inhibition is 6% (inactive)

* * *

- Measurement protocol: NCI Yeast Anticancer Drug Screen. Data for the mlh1 rad18 strain (AID 175)
- Condition summary: S. cerevisiae mlh1 rad18 strain growth inhibition; at 5.0 µM (retest, dose inferred, filed as 0.5); hits give high values
This is part of a sample that, as a whole, favours compounds with a hit. Of some 79,000 tested, about 15% had one in any assay.
Endpoint name: growth inhibition (%)
Field format: number, assumed %, no unit text.

# Molecule, growth inhibition [%]
data = [
    ("O=C(C#Cc1ccccc1)Nc1ccccc1", -149),
]

Entry "O=c1cccccc1[O-].O=c1cccccc1[O-].O=c1cccccc1[O-].[Eu+3]" , growth inhibition reported as 24

Recorded result, CCC1(O)C(=O)OCc2c1cc1n(c2=O)Cc2cc3c(N)cccc3nc2-1 (stereo not drawn) , growth inhibition: 16

Record "COc1cc([N+](=O)[O-])c2ncccc2c1Br" , field growth inhibition: 53

Just so you know, measured growth inhibition for "Cc1ccc(NC(Nc2ccc(C)cc2C)=C(C(Cl)=C(Cl)Cl)[N+](=O)[O-])c(C)c1" came out at 96

For record "CCCCCCCCCCCCOCCOCCOCC(N)=O" the listed growth inhibition is 26

The molecule identified as "Cc1cc(C)c2[s+]snc2c1" registered its growth inhibition at 2

Entry "Clc1ccc(/C(=C\c2ccccc2)Cn2ccnc2)cc1" — recorded growth inhibition = 42

Documented growth inhibition of "O=Cc1ccccc1C=O" : -23

* * *

- Measurement protocol: NCI Yeast Anticancer Drug Screen. Data for the mlh1 strain (AID 171);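 also: 0% = growth of vehicle-treated control cultures of the same strain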
- Condition summary: S. cerevisiae mlh1 strain growth inhibition; at 1.2 µM; hits give high values
This is part of a sample that, as a whole, favours compounds with a hit. Of some 79,000 tested, about 15% had one in any assay.
Measured growth inhibition of individual entries
Provide the reading as a plain figure in %.

Use the examples below as a reference point.
# Structure notation, growth inhibition, %
measured = [
    ("O=C(CCSC1=NCCCN1)c1ccc(F)cc1", -32),
    ("O=C(CCCN1CCC(Nc2ccc(F)cc2)(c2nnnn2C2CCCCC2)CC1)c1ccc(F)cc1", -3),
]

So for "O=[N+]([O-])c1ccc2[nH]c3c(-c4ccccc4)nccc3c2c1" , the logged growth inhibition turned out to be -2

Measured growth inhibition of "CC(C)(Br)C(=O)/C=C/c1ccccc1" : 0

So for "CC1(C2CC2)C(C#N)(C#N)C1(C#N)C#N" , the logged growth inhibition turned out to be 4

Field growth inhibition (entry "O=C(O)c1c2ccc(Cl)cc2nc2[nH]c(=O)[nH]c(=O)c12" ) reads -29

* * *

- Measurement protocol: NCI Yeast Anticancer Drug Screen. Data for the rad14 strain (AID 159);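 also: 0% = growth of vehicle-treated control cultures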
- Condition summary: S. cerevisiae rad14 strain growth inhibition; at 11.0 µM
About 79,000 compounds went through this panel and 15% of them were active in at least one assay; those are over-represented in the sample as a whole. Active and inactive are the calls of the source. Rule as the data show it: active = growth inhibition above about 70%; inactive = the rest.
Allowed answers: 1 (yes) for active, 0 (no) for inactive

# Compound, Label value
records = [
    ("CCC(OC(C)=O)C1CC(C(C)C)CCC1C (stereo not given)", "0 (no)"),
    ("CCCCCc1c(CCCC)c(=O)[nH]c2cc(CNCC(OC)OC)ccc12", "1 (yes)"),
    ("Clc1nc(Cl)nc(Nc2cccc3ccccc23)n1", "0 (no)"),
    ("CCCCS(=O)(=O)Nc1ccc(Nc2c3ccccc3nc3ccccc23)c(OC)c1", "0 (no)"),
    ("CC1=NN(C(=O)CC(=O)NC(=O)/C=C\\c2ccccc2)C(=O)C1N=Nc1ccc([N+](=O)[O-])cc1 (stereo not given)", "0 (no)"),
]

Which result was noted for this compound in the test: "O=[N+]([O-])[O][Sn]([O][Sn]([O][N+](=O)[O-])([c]1ccccc1)[c]1ccccc1)([c]1ccccc1)[c]1ccccc1"
0 (no)

Query: recorded result category for "COC(=O)C(=O)CC(=O)c1cccc(OC)c1" in this test
0 (no)

Please state the recorded outcome for this compound: O=C(O)C1CCCCC1c1c2ccc(=O)cc-2oc2cc(O)ccc12 (stereo not given)
0 (no)

Recorded test call requested for O=S(=O)(c1cccc(C(F)(F)F)c1)N1c2ccccc2-n2cccc2C1c1cccnc1 (stereo not given)
1 (yes)

In this assay, the call recorded for "O=c1cccccc1[O-].O=c1cccccc1[O-].O=c1cccccc1[O-].[Eu+3]" was what?
0 (no)
